# System name: CAMK2G (human) (UniProt Q13555)
# Sequence (Q13555 whole entry, looked up): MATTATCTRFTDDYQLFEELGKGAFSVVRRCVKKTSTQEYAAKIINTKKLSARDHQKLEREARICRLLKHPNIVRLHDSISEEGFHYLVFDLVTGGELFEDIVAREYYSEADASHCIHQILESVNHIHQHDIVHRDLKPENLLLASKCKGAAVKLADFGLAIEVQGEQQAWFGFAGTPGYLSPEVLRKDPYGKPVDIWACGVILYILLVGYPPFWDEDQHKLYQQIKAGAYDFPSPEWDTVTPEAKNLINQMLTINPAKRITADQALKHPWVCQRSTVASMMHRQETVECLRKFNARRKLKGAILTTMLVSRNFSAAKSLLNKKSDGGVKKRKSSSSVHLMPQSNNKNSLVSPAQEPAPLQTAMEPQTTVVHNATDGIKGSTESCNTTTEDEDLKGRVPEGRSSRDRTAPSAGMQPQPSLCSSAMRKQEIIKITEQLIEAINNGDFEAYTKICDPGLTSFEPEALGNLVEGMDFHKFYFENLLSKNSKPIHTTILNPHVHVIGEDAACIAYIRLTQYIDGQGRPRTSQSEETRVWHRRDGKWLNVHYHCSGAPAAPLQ
# Protocol notes: radiometric filter-binding kinase assay, Kinase HotSpot
# Test conditions: compound 0.5 µM; ATP 10 µM
Readout kind: residual activity (%)
Could you give me the number in %? Just the number is fine.

Report residual activity for O=C(Nc1ccc(Cl)cc1)c1ccccc1NCc1ccncc1 please. 89.2

Report residual activity for CCN1/C(=C/C(C)=O)Sc2ccc(OC)cc21 please. 90.4

Report residual activity for O=C1Nc2cc(Br)ccc2/C1=C1/Nc2ccccc2/C1=N\O please. 28.3

Report residual activity for CS(=O)c1ccc(-c2nc(-c3ccc(F)cc3)c(-c3ccncc3)[nH]2)cc1 (configuration not stated) please. 82.2

Report residual activity for O=C1Cc2c([nH]c3ccc([N+](=O)[O-])cc23)-c2ccccc2N1 please. 94.5

Report residual activity for NC(=O)c1ccc(N(C(N)=O)c2c(F)cccc2F)nc1-c1ccc(F)cc1F please. 105

Report residual activity for Clc1ccc(Nc2nnc(Cc3ccncc3)c3ccccc23)cc1 please. 115

Report residual activity for O=c1cc(N2CCNCC2)oc2c(-c3ccccc3)cccc12 please. 102

Report residual activity for O=C1Nc2ccccc2/C1=C\c1c(Cl)[nH]c2ccccc12 please. 103

Report residual activity for COc1ccc(-c2cnc3c(-c4ccsc4)cnn3c2)cc1 please. 93.7

Report residual activity for CC(C)(C)c1nc2c3ccc(F)cc3c3c(=O)[nH]ccc3c2[nH]1 please. 72.8

Report residual activity for CSc1nc(-c2ccc(F)cc2)c(-c2ccnc(NC(C)c3ccccc3)c2)[nH]1 (configuration not stated) please. 102
